# EXPERIMENT SUMMARY: in vitro
# CONDITION DESCRIPTION: human, hek293t cells
Can you tell me viability at 48 h, 25 µM for the items I'm about to list?

Given CC(Cl)C(=O)Nc1cc(Cl)cc(Cl)c1 (stereo not drawn) , state its recorded viability at 48 h, 25 µM. 67.8%

# iterate: CC(=O)Nc1ccc(C=C(C#N)C(=O)Nc2c(C)cc(C)cc2C)cc1 87.7%

Record: COc1ccc(C(NC(=O)CCl)c2ccccc2)cc1 (stereo not drawn) 0.827%

// next record Cc1cccc(C)c1NC(=O)CNC(=O)C(C)Cl (stereo not drawn) 106%

Proceed to CC(C)Cc1nnc(NC(=O)CCl)s1 0.521%

Request: Cc1ccc(C(=O)C(C)Cl)cc1C (stereo not drawn) 85%

Same question for Cc1cccc(C=C(C#N)C(=O)Nc2ccc(F)cc2)c1 please. 113%

Check COc1ccc(C=C(C#N)C(=O)Nc2ccccc2)cc1 too. 76.8%

# repeat for CC(NC(=O)C(C#N)=Cc1ccc2c(c1)OCCO2)c1ccccc1 (stereo not drawn) 64.3%

---

# EXPERIMENT SUMMARY: in vitro
# CONDITION DESCRIPTION: human, hek293t cells
ENDPOINT: viability at 48 h, 25 µM (%)
Quick note: give the figure in %, leave out the unit.

Entry under review: CC(Cl)C(=O)NC(=O)NC12CC3CC(CC(C3)C1)C2 (stereo not drawn) . Reported viability at 48 h, 25 µM? 101

Then C=CC(=O)NCc1ccc(C(=O)N2CCC(NC(C)=O)CC2)cc1 ? 90.5

Also C=CC(=O)Nc1ccnc(OC)c1 [2-F21, N-(2-methoxypyridin-4-yl)prop-2-enamide] ? 1.66

# repeat for CCn1nc(C)c(C(=O)CCl)n1 27.2

Entry to check: CC(Cl)C(=O)N1CCCC(n2ncc(N(C)C(C)C)cc2=O)C1 (stereo not drawn) 97.3

Now consider O=C(CCl)NCCSc1ccc(Cl)cc1 and answer again. 0.813

Check C=CC(=O)NCc1ccc(C(=O)N2CCCC2C(=O)N(C)C)cc1 (stereo not drawn) too. 71.2

Cool, now COc1ccccc1CN1C(=O)C=CC1=O 105

Thanks! And C=CC(=O)Nc1ccccc1Sc1nncs1 ? 32.3

Check C=CC(=O)NCCn1nnnc1C too. 110

N#CC(=Cc1cccc(Oc2ccccc2)c1)C(=O)NC(N)=O , same question. 134

Similarly, CC(C)C(C(=O)O)N1C(=O)C=CC1=O (stereo not drawn) ? 106

Now give it for N#CC(=Cc1ccc(OC(F)F)cc1)C(=O)N1CCCc2ccccc21 too. 64.6

What do we get for COc1ccc(-c2n[nH]cc2C=C(C#N)C(=O)Nc2ccccc2)cc1 ? 76.6

And then C=CC(=O)N1CCN(S(=O)(=O)Cc2ccon2)CC1 , what is it? 112

And CC(C)NC(=O)C(C#N)=Cc1ccccc1OC(C)C ? 112

Then Cc1ccc(C=C(C#N)C(=O)Nc2ccc(C(=O)N(C)C)cc2)o1 ? 119

Entry CC(Cl)C(=O)N[C@H](CC(N)=O)c1cccc(Cl)c1 (stereo partly drawn) please 102

Note, next up: O=C(CCl)Nc1ccc(S(=O)(=O)Nc2nccs2)cc1 1.19

Now consider CCC(NC(=O)CCl)c1c(C)noc1C (stereo not drawn) . 104

// repeat for Cn1c(=O)oc2cc(C(=O)CCl)ccc21 and report 110

Also need CC(Cl)C(=O)N1CCc2ccccc21 (stereo not drawn) , thanks. 114

Can you handle C=CC(=O)NC1CC2CCC(C1)N2S(C)(=O)=O (stereo not drawn) next? 93.8

Likewise for Cc1ccc(NC(=O)C(C#N)=Cc2cccc(F)c2)cc1 ? 85.7

Please do the same for C=CC(=O)NCc1nc(C2CC2)cs1 as well. 103

Let us now turn to CCOC(=O)c1c(C)[nH]c(C(=O)C(C)Cl)c1C (stereo not drawn) 95.2

Another compound: CC(NC(=O)C(C#N)=Cc1ccc(C(F)(F)F)cc1)c1ccccc1 (stereo not drawn) 2.11

Also C=CC(=O)NCCN1C(=O)COc2ccccc21 , if possible. 60.4

Also check N#CC(=Cc1ccc(-c2cccc([N+](=O)[O-])c2)s1)C(=O)NC1CC1 103

Next entry: C=CC(=O)Nc1cccc2c1CCN2C(C)=O 110
